Biological target: Focal adhesion kinase 1 (Homo sapiens)
Experiment: small-molecule microarray binders of FAK, primary screen, biochemical, 635/667 nm fluorescence, BSA, DTT (AID 1130);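 note: composite of spot emission at 667 nm and signal to noise over triplicate slides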
Details: PTK2 binding, 635 nm fluorescence, higher = more signal
This listing pairs molecules with measured composite z-score.

MOLECULE: CC(C)=CCCC(C)=CCON=C1C[C@@H](O)[C@@H](O)[C@@H]2[C@@H]3C(=O)N(C[C@@H]4CCCO4)C(=O)[C@@H]3CC[C@H]12
composite z-score: 0.349

MOLECULE: COCCNC(=O)OCC1CCCC2(CC(OC(=O)NCc3ccc4c(c3)OCO4)CC(CCC(=O)N[C@@H](C)C(=O)OC)O2)O1 (some centres not stated)
composite z-score: 0.136

MOLECULE: CO[C@H]1COC(=O)CC=C[C@@H](C)[C@H](NS(=O)(=O)c2ccc(C)cc2)COC(=O)CCC[C@@H]1C
composite z-score: 0.193

MOLECULE: CC(=O)O[C@H]1C2=CO[C@H](C)[C@H]3[C@H]4C5=C([C@H](O)[C@H]6O[C@H]6C5=O)[C@H](OC4C)[C@@]23C(=O)[C@@H]2O[C@@H]21 (some centres not stated)
composite z-score: -0.703

MOLECULE: COc1cccc([C@H]2Oc3ccc(OC)cc3C(=NOC[C@@H](O)COCc3ccco3)[C@@H]2O)c1
composite z-score: 0.3

MOLECULE: CCOC(=O)C1=NO[C@]2(C=C(Br)C3(OCCCO3)[C@H]3O[C@H]32)C1
composite z-score: -0.428

MOLECULE: C[C@@H](c1ccccc1)N1C(=O)[C@H]2[C@H]3[C@H](O)[C@H](O)CC(=NOCc4ccccc4)[C@H]3CC[C@H]2C1=O
composite z-score: 0.0785

----------
Molecular target: Streptavidin (Streptomyces avidinii) (UniProt P22629)
Sequence (P22629 whole entry, looked up): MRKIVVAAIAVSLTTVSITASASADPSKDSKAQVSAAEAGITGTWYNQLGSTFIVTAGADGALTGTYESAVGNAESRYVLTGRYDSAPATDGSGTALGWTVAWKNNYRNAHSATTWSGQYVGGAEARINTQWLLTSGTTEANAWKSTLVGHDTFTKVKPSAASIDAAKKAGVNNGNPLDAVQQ
Experiment: streptavidin binders on small-molecule microarray, primary screen, artefact control for SMM compound annotation, biophysical, 635/667 nm fluorescence (AID 1147);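 note: signal reflects streptavidin binding to arrayed compounds as a control protein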
Conditions: streptavidin binding, higher = more signal
This listing pairs molecules with measured composite z-score.

MOLECULE: COc1ccc(O[C@H]2C=C[C@@H](c3ccccc3)O[C@@H]2CON=C(C)C)cc1
composite z-score: 0.446
--
MOLECULE: CC(C)=CCCC(C)=CCON=C1C[C@@H](O)[C@@H](O)[C@@H]2[C@@H]3C(=O)N(C(C)(C)C)C(=O)[C@@H]3CC[C@@H]12
composite z-score: -0.125
--
MOLECULE: CCOC(=O)CCN1C(=O)[C@H]2[C@H]3[C@H](O)[C@H](O)CC(=NOCc4ccccc4)[C@H]3CC[C@H]2C1=O
composite z-score: 0.758
--
MOLECULE: CCOC(=O)[C@H](CC(C)C)NC(=O)CCC1CC(OC(=O)NCc2cccc3ccccc23)CC2(CCCC(COC(=O)NCCc3ccc(Cl)cc3)O2)O1 (some centres undefined)
composite z-score: 0.614

----------
This listing pairs compounds with measured composite z-score.
Assay: small-molecule binders of probe aNOTCH3, primary screen, biochemical, small-molecule microarray, 635/667 nm fluorescence (AID 1120);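 note: probe is a biotin-tagged antibody raised against NOTCH3 rather than NOTCH3 protein; score merges spot fluorescence near 667 nm with spot signal to noise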
Settings: higher = more signal
PROPERTY_NAME: composite z-score

COMPOUND: C=C(C)C(=O)OCC1CN2[C@@H](CC[C@@H](C)[C@@H]2c2ccc(Br)cc2)C(=O)O1 (stereo partly drawn)
PROPERTY_NAME: composite z-score
REPORTED_RESULT: 0.0539
--
COMPOUND: C=CC[C@@H]1C=C[C@H](ON=C[C@@H](C)[C@H](OCc2ccccc2)C(C)C)[C@@H](CO)O1
PROPERTY_NAME: composite z-score
REPORTED_RESULT: -0.276
--
COMPOUND: CCC=CCCC(OC(=O)c1ccc(Br)cc1)C1=CCCCC1=O (stereo not drawn)
PROPERTY_NAME: composite z-score
REPORTED_RESULT: 0.0836
--
COMPOUND: COc1ccc(COC(=O)NN=C2C[C@@H](O)[C@@H](O)[C@@H]3[C@@H]4C(=O)N(c5ccc(F)cc5F)C(=O)[C@@H]4CC[C@H]23)cc1
PROPERTY_NAME: composite z-score
REPORTED_RESULT: 0.0961
--
COMPOUND: CC(C)CON=C1C[C@@H](O)[C@@H](O)[C@@H]2[C@@H]3C(=O)N(c4ccc(F)cc4F)C(=O)[C@@H]3CC[C@H]12
PROPERTY_NAME: composite z-score
REPORTED_RESULT: -0.122
--
COMPOUND: CCOC(=O)NN=C1C[C@@H](O)[C@@H](O)[C@@H]2[C@@H]3C(=O)N([C@@H](C)c4ccccc4)C(=O)[C@@H]3CC[C@@H]12
PROPERTY_NAME: composite z-score
REPORTED_RESULT: 0.119
--
COMPOUND: C[C@H]1CC[C@H]2C(=O)OC(CO)CN2[C@@H]1c1ccc(Br)cc1 (stereo partly drawn)
PROPERTY_NAME: composite z-score
REPORTED_RESULT: -0.0647
--
COMPOUND: CO[C@H]1COC(=O)[C@H](C)NC(=O)CC=C[C@@H](C)[C@H](OC)COC(=O)[C@@H](OCc2ccccc2)C=C[C@@H]1C
PROPERTY_NAME: composite z-score
REPORTED_RESULT: -0.068
